target: Torsin-1A (Homo sapiens) (UniProt O14656); test: torsin A binders from cell lysate, primary screen, small-molecule microarray, wild-type, 635/667 nm (AID 1149); conditions: COS7 hTOR1A-WT lysate, 635 nm fluorescence, higher = more signal
Sequence (O14656 whole entry, looked up): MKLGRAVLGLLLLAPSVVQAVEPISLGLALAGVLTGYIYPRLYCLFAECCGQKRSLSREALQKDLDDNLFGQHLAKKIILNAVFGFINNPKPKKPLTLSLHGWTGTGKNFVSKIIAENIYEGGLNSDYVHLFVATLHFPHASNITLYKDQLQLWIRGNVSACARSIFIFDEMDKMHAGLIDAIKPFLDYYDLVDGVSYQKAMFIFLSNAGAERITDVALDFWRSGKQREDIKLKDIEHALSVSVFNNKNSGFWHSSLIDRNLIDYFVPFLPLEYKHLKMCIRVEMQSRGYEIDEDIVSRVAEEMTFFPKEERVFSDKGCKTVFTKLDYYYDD
Threshold check on composite z-score: at or above 0.4 gives class 1, strictly below gives class 0.

These solved cases illustrate the format of a correct answer.
CC(C)(C)OC(=O)CC[C@]1(C(=O)NCCN2CCOCC2)N=C(c2ccc(OCCCO)cc2)O[C@H]1c1ccccc1
class 0
C=C1C2CC3C(=C4C(CO[C@@H]4[C@H]4CCCN4S(=O)(=O)c4ccccc4[N+](=O)[O-])C4C(=O)N(C)C(=O)C34)CC2C(=O)N1C (some centres undefined)
class 1
CCOC(=CC(=O)OC)CC(O)c1cccc(Cl)c1 (centres undefined)
class 1
C=CCC(OC(C)=O)[C@@H]1[C@@H](N(Cc2ccc(-c3ccccc3)cc2)C(=O)c2cccc3ccccc23)c2cc(OCCCO)ccc2N1C(=O)Cc1ccc2ccccc2c1 (some centres undefined)
class 0
C=CCC(OC(C)=O)[C@@H]1[C@@H](N(Cc2cc3ccccc3o2)C(=O)Cc2ccc(F)cc2)c2cc(OCCCO)ccc2N1C(=O)c1ccc2ccccc2n1 (some centres undefined)
class 0

Given CC(C)(C)OC(=O)CC[C@@]1(C(=O)O)N=C(c2ccc(OCCCO)cc2)O[C@@H]1c1ccccc1CN=[N+]=[N-] , state whether its composite z-score is at least 0.4. class 0

Item CC(C)N1CC=CC23O[C@@H]4C=CCCOC(=O)C4[C@H]2C(=O)N(CCO)[C@@H]3C1=O (some centres undefined) with composite z-score of 0.4 or above? class 1

Does CC=CC(O)C1C=CC2C(=O)N(c3ccccc3)C(=O)C2N1Nc1ccccc1 (centres undefined) have a reported composite z-score of at least 0.4? class 0

# bool: composite z-score of O=C1NCC(=O)N2[C@@H]1C[C@@H](C(=O)O)[C@H]2c1ccc(O)cc1 >= 0.4 class 1

State whether the measured composite z-score reaches 0.4, counting equality as reaching it, for C=CC[C@@H](OC(=O)Nc1ccc(OC)cc1)c1ccc(OCCO)cc1 class 0

Quick check: does COc1ccc([Si](C)(C)[C@H]2[C@H](CCn3cc(CCO)nn3)O[C@@]3(C(=O)N(Cc4ccc(N5C(=O)c6cccc7cccc5c67)cc4)c4ccccc43)[C@@H]2C)cc1 have composite z-score greater than or equal to 0.4? class 0

Does the molecule COc1ccccc1CN1C(=O)c2ccccc2[C@@H](C(=O)NC(C)C)[C@@H]1c1ccc(CO)cc1 have recorded composite z-score that is 0.4 or more? class 0

###

For each entry below, report its composite z-score value.
target: Alpha-bungarotoxin (Bungarus multicinctus) (UniProt P60615); assay: alpha-bungarotoxin binders on microarray, profiling panel, artefact control for SMM control protein annotation, biochemical, small-molecule microarray, Alexa647 label, 635/667 nm fluorescence (AID 1117); conditions: alpha-BTX-A647 binding fluorescence, higher = more signal
Sequence (P60615 whole entry, looked up): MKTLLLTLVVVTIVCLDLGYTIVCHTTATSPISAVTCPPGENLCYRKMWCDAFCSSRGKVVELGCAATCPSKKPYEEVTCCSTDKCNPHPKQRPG
Give bare numbers.

Example results:
COc1ccc([Si](C)(C)[C@@H]2[C@@H](CCn3cc([C@H](O)c4ccccc4)nn3)O[C@]3(C(=O)N(Cc4ccc(N5CCOC5=O)cc4)c4ccccc43)[C@H]2C)cc1
1.06
O=C1NCC(=O)N2[C@@H]1C[C@@H](C(=O)O)[C@H]2c1ccc(O)cc1
0.707
O=C1NC(=O)C2C1C=CC(C(O)c1ccc(Br)cc1)N2Nc1ccccn1 (configuration not stated)
0.22
C=C(/C(=C/C[C@@H](OC(=O)c1ccncc1)c1ccccc1OCCO)c1cc(C(=O)OC)ccc1OC)C(C)C
0.255
CCC[C@@H]1C[C@@]1(CCC)[C@@H](NP(=O)(c1ccccc1)c1ccccc1)c1ccc(Cl)cc1
-0.846
CCOC(=O)[C@H]1C/C=C/C[C@H](C(=O)OCC)C(=O)O[C@H]2[C@@H](OC)O[C@H](CO)[C@@H](OC(=O)Nc3ccc(OC)cc3)[C@@H]2OC1=O
1.09

Could you tell me composite z-score for each of these molecules? They are listed below.
1. COCCOC(=O)N1C(=O)[C@@]2(c3cc(C#CC4(O)CCCCCC4)ccc31)[C@H](C(N)=O)[C@H]1C(=O)O[C@H](c3ccccc3)[C@H](c3ccccc3)N1[C@@H]2c1ccc(O)cc1
2. O=C1OCCC=C[C@H]2OC34C=CCN(c5ccc(Cl)cc5)C(=O)[C@H]3N(CCCCCO)C(=O)[C@@H]4C12 (some centres not stated)
3. C[C@]12C(=O)N(CCCCCCO)[C@@H]3C(=O)N(c4ccc(Cl)cc4)CC=CC31O[C@@H]1/C=C\CCCOC(=O)C12 (some centres not stated)

1. 0.74
2. -0.702
3. -0.0604

Please report composite z-score for every entry that follows.
1. CC=CC(O)C1C=CC2C(=O)N(C)C(=O)C2N1Nc1ccc([N+](=O)[O-])cc1[N+](=O)[O-] (configuration not stated)
2. CC(C)(C)OC(=O)CC[C@]1(C(=O)N2CCOCC2)N=C(c2ccc(OCCCO)cc2)O[C@H]1c1ccccc1
3. COCCOC(=O)N1C(=O)[C@@]2(c3cc(C#CC4(O)CCCCCC4)ccc31)[C@H](C(=O)N1CCCCCCC1)[C@H]1C(=O)O[C@H](c3ccccc3)[C@H](c3ccccc3)N1[C@@H]2c1ccc(OCCO)cc1

1: -0.297; 2: 0.109; 3: 2.89
